Consider the following compounds; for each one, report its IC50.
Target: human TLR7 (Homo sapiens, UniProt Q9NYK1)
Construct: host or cells: HEK-Blue cells
Sequence (Q9NYK1 27-1049): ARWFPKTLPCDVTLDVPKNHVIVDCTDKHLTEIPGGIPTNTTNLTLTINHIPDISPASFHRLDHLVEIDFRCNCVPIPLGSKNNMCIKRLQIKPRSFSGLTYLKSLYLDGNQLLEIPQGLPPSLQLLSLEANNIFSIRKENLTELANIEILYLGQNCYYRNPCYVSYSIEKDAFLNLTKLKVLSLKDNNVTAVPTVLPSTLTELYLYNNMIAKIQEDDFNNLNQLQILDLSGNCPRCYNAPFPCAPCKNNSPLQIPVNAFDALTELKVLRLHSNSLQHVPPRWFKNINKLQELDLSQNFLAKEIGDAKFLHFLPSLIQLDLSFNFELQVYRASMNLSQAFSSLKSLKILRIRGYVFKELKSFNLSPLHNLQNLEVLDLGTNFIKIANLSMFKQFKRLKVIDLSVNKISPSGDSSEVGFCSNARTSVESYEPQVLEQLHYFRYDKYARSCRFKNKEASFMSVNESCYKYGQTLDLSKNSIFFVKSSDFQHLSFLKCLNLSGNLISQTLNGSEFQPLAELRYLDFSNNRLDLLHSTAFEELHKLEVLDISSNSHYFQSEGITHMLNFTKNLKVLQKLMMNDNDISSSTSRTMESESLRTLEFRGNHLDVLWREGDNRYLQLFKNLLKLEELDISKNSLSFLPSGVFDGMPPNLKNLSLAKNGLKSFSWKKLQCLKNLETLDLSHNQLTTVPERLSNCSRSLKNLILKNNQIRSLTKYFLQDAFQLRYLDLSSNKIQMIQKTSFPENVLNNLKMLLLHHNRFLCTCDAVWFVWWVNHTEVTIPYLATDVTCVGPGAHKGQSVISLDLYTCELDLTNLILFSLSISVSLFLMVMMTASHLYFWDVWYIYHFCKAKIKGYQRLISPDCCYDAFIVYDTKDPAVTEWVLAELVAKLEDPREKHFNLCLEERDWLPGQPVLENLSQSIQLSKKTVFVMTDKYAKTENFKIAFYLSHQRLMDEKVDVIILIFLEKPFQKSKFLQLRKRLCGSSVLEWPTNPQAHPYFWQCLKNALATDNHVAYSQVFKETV
Assay: TLR7 inhibition reporter assay (HEK-Blue cells, SEAP reporter, gardiquimod stimulation)
Type: cell-based
Conditions: HEK-Blue cells overexpressing human TLR7, gardiquimod 7.5 μM

Example cases with answers are listed next.
> print(dat)
                                   compound                             tested.target  observed
1  COc1ccc(-c2[nH]c3ccc(C4CCN(C5CCN(Cc6ccccc6)CC5)CC4)cc3c2C)cc1OC  human TLR7 (Homo sapiens, UniProt Q9NYK1)   1550 nM
2  COc1ccc(-c2[nH]c3ccc(C4CCN(C5CCN(CC6CCCC6)CC5)CC4)cc3c2C)cc1OC  human TLR7 (Homo sapiens, UniProt Q9NYK1)  24000 nM

Look at each compound and report its IC50.
1. COc1ccc(-c2[nH]c3ccc(C4CCN(CC(=O)N5CCN(C(C)C)CC5)CC4)cc3c2CC(F)(F)F)cc1OC
2. CCc1c(-c2ccc(OC)c(OC)c2)[nH]c2ccc(C3CCN(C4CCN(Cc5cc(C)nn5C)CC4)CC3)cc12

1: 65 nM; 2: ≥ 50000 nM

---

Target: human TLR9 (Homo sapiens, UniProt Q9NR96)
Sequence (Q9NR96 26-1032): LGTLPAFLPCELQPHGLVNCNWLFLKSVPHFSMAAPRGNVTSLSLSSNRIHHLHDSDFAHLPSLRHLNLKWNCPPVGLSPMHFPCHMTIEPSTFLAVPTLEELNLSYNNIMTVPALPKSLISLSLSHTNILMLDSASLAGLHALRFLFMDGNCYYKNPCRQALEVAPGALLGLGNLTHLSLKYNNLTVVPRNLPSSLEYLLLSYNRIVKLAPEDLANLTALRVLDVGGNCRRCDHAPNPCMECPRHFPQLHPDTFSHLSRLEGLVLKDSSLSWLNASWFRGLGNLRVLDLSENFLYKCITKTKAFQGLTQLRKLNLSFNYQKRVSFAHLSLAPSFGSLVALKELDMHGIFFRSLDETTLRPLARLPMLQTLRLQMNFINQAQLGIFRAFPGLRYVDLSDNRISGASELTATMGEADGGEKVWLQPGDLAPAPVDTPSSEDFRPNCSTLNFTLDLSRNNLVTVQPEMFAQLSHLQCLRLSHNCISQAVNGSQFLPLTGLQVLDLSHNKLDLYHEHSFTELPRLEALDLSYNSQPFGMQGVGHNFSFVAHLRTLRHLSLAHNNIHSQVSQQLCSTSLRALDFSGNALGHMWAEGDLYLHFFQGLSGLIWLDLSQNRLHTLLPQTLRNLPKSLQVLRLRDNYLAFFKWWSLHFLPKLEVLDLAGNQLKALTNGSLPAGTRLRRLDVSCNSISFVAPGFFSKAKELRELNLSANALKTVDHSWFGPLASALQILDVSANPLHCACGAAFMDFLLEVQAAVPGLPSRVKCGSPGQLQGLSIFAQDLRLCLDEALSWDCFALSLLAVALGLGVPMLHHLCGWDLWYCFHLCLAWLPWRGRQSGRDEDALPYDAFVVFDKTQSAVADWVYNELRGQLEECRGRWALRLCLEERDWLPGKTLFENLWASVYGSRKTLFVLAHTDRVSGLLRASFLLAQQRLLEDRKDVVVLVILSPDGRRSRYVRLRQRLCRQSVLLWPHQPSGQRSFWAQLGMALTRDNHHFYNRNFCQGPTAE
Experiment: TLR9 inhibition reporter assay (HEK-Blue cells, SEAP reporter, ODN2006 stimulation)
Conditions: HEK-Blue cells overexpressing human TLR9, ODN2006 5 nM
Binary label based on IC50 with cut-off 1 µM: below gives Condition met, not below gives Condition not met.

Please review the entries below; each comes with its answer.
> print(dat)
                                   compound        group.label
1  CCN(CC)C(=O)CCN(C)CC(=O)N1CCC(c2ccc3[nH]c(-c4ccc(OC)c(OC)c4)c(C(C)C)c3c2)CC1  Condition not met
2  CCc1c(-c2ccc(OC)c(OC)c2)[nH]c2cc(C)c(C3CCN(CCNC)CC3)cc12      Condition met
3  COc1ccc(-c2[nH]c3ccc(C4CCN(C(=O)CN5CCN(C)CC5)CC4)cc3c2C)cc1OC  Condition not met
4  CCc1c(-c2ccc(OC)c(OC)c2)[nH]c2ccc(C3CCN(C4CCN(Cc5coc(C)n5)CC4)CC3)cc12      Condition met

Kindly review the next compound as well.
Check if IC50 falls below 1 µM for CCc1c(-c2ccc(OC)c(OC)c2)[nH]c2ccc(C3CCN(C(=O)CNCCO)CC3)cc12 .
Condition not met

---

Molecular target: human TLR7 (Homo sapiens)
Assay: TLR7 inhibition reporter assay (HEK-Blue cells, SEAP reporter, gardiquimod stimulation)
Details: HEK-Blue cells overexpressing human TLR7, gardiquimod 7.5 μM
Structures can show the parent of a compound that is named as a salt.
measurement-name: pIC50
Give bare numbers, as −log10 of the molar value.

Answered examples (3):
> print(dat)
                                   molecule  observed
1  COc1ccc(-c2[nH]c3ccc(C4CCN(Cc5ccc(-n6cncn6)cc5)CC4)cc3c2C)cc1OC [Example 34]      6.17
2  COc1ccc(-c2[nH]c3ccc(C4CCN(C(=O)CN5CCC[C@H](C(=O)NC6(CO)CCCC6)C5)CC4)cc3c2C(C)C)cc1OC [Example 296]      7.46
3  COc1ccc(-c2[nH]c3ccc(C4CCN(Cc5cnc[nH]5)CC4)cc3c2C(C)C)cc1OC [Example 268]      7.51

Consider the record given below.
For the molecule CCN(CC)C(=O)CN(C)CC(=O)N1CCC(c2ccc3[nH]c(-c4ccc(OC)c(OC)c4)c(C(C)C)c3c2)CC1 [Example 203, TFA] , what pIC50 is on record?
6.89

Just for reference, patent US11180474B2 is where these values come from.
